- STUDY_SYSTEM: rFVIII (Homo sapiens)
- ASSAY_PROTOCOL: rFVIII activity recovery from peptide columns by chromogenic substrate assay (COATEST)
- Format: biochemical
- PROTOCOL_CONDITIONS: Table 9; 0.5M CaCl2 fraction
ASSAY_ENDPOINT: Activity results % total (%)

6 (HYWFYK) [compound 6] | 86
5 (LNWKYG) [compound 5] | 96
9 (FALPGR) [compound 9] | 98

* * *

- STUDY_SYSTEM: rFVIII (Homo sapiens, UniProt P00451)
- Sequence (P00451 20-2351): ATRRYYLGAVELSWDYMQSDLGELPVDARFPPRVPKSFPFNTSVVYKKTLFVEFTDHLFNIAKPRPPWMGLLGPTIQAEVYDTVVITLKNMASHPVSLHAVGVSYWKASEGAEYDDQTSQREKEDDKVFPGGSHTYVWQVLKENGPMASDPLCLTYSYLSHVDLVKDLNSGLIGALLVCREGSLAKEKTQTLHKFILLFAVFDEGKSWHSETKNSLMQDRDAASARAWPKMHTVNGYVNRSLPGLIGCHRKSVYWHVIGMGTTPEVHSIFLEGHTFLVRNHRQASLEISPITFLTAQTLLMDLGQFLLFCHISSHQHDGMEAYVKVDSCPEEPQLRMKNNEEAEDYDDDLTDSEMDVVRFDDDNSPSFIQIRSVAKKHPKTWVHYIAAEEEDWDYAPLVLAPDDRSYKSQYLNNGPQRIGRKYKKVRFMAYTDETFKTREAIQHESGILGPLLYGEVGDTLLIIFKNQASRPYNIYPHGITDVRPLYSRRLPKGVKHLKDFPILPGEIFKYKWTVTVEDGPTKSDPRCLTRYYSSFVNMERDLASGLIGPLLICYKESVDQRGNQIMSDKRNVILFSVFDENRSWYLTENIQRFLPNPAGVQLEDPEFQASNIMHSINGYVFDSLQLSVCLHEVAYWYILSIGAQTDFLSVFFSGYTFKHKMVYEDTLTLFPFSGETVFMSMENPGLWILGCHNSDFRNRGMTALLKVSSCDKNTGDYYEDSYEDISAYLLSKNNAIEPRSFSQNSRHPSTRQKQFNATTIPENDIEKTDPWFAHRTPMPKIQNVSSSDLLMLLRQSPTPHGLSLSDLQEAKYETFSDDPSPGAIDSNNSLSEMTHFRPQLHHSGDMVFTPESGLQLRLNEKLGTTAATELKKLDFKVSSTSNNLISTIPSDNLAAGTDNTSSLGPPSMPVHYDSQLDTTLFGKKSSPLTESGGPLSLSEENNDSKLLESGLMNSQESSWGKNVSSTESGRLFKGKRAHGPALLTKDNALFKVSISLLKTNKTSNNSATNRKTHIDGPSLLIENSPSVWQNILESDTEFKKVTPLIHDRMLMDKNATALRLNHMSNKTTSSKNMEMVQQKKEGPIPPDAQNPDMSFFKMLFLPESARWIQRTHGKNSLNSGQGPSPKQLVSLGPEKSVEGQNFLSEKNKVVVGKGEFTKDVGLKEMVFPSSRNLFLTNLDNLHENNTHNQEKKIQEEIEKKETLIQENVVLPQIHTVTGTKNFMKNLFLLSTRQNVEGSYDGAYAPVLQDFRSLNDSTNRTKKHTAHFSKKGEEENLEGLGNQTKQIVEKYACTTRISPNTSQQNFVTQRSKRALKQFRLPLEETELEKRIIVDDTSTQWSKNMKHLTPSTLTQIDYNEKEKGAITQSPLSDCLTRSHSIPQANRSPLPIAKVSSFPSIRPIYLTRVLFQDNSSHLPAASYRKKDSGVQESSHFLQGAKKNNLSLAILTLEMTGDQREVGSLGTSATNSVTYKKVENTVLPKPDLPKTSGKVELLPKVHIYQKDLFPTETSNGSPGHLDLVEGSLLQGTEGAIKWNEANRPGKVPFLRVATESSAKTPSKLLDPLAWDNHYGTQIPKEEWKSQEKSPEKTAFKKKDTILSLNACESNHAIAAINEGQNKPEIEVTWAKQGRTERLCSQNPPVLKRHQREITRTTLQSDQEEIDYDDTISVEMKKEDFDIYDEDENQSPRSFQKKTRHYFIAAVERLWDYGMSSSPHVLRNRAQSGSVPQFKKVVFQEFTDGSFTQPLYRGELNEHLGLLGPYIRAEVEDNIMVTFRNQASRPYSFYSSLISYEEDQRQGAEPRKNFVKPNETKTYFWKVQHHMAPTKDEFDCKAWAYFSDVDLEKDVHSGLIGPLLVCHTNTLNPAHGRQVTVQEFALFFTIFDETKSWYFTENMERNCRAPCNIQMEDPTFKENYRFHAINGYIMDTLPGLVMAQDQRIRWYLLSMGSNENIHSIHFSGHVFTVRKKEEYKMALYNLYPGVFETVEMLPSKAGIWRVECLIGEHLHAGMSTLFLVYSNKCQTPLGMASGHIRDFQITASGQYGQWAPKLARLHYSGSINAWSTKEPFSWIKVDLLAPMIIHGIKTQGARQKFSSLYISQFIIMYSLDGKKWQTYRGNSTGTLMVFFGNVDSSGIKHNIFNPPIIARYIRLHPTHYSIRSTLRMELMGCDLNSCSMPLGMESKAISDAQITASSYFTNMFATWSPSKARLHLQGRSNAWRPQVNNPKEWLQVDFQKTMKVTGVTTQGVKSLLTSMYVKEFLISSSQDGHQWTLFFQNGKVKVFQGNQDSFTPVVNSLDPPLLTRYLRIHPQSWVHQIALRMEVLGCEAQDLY
- Sequence (P00451 1668-2351 limits assumed): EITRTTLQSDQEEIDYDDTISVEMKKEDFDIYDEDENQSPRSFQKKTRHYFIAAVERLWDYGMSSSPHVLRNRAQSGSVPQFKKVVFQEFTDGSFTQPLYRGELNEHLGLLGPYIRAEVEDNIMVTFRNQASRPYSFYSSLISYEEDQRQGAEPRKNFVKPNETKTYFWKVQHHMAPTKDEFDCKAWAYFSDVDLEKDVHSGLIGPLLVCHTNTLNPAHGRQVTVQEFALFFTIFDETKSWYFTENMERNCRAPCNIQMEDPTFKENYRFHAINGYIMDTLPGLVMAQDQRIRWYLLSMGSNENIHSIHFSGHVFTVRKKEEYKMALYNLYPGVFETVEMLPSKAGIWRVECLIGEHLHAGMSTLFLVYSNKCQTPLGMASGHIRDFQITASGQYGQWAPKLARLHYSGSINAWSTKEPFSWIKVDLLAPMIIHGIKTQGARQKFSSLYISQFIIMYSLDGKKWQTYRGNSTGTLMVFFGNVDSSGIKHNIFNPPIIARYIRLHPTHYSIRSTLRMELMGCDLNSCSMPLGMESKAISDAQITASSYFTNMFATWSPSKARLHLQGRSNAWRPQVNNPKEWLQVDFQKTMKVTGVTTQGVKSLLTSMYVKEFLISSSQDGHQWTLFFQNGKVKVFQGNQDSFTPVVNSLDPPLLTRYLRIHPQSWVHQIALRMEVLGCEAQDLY
- ASSAY_PROTOCOL: confirmatory binding assay in filtration plate format using 14C-rFVIII
- PROTOCOL_CONDITIONS: Table 3; 14C-rFVIII 20 nM in PPF, 5 mg beads
ASSAY_ENDPOINT: 0.5M CaCl2 % total (%)

6 (HYWFYK) [compound 6] | 83
1 (KPNPLA) [compound 1] | 85
4 (FRPHWA) [compound 4] | 78

* * *

- STUDY_SYSTEM: rFVIII (Homo sapiens, UniProt P00451)
- ASSAY_PROTOCOL: confirmatory binding assay in filtration plate format using 14C-rFVIII
- PROTOCOL_CONDITIONS: Table 4; 14C-rFVIII 30 nM in PPF, 5 mg beads
ASSAY_ENDPOINT: 0.5M CaCl2 % total (%)

12 (QRLIQF) [compound 12] | 90

(I) 14 (EPRVIG) [compound 14]
(II) 19 (FHFGLQ) [compound 19]
Exercise: Lab note: check whether I or II has the lower measured 0.5M CaCl2 % total. Lab note: record the label of whichever item you select.
Key: II

(P) 9 (FALPGR) [compound 9]
(Q) 20 (WHHHRG) [compound 20]
Exercise: Larger number for 0.5M CaCl2 % total: P , or Q ? Lab note: record the label of whichever item you select.
Key: P
(P: 93%, Q: 12%)

(A) 13 (KAQETW) [compound 13]
(B) 22 (FVFLVR) [compound 22]
Exercise: Lab note: check whether A or B has the lower measured 0.5M CaCl2 % total. Lab note: record the label of whichever item you select.
Key: B
(B: 16%, A: 95%)

* * *

- STUDY_SYSTEM: rFVIII (Homo sapiens, UniProt P00451)
- ASSAY_PROTOCOL: column format binding assay, rFVIII mass per fraction by sandwich capture ELISA for the light chain
- PROTOCOL_CONDITIONS: Table 6; 10,000 ng rFVIII in 1:10 PPF injected, 5° C.
- Method: Immunoassay on rFVIII using a sandwich capture ELISA for the light chain and activity assay using a chromogenic substrate (COATEST Factor VIII kit from diaPharma, Franklin, Ohio) were performed on a BIOMEK® automated liquid handling system from Beckman Instruments (Brea, Calif.). The monoclonal antibody for rFVIII light chain (known as C7F7), the ELISA assay standard (lot A70K019), and the control for the activity assay (lot A70A001 @ 140 IU/mL) were from the Bayer Corporation (Berkeley, Calif.). […]
ASSAY_ENDPOINT: Flow through ng (ng)

13 (KAQETW) [compound 13] | 641

(I) 14 (EPRVIG) [compound 14]
(II) 20 (WHHHRG) [compound 20]
(III) 11 (NAIFQW) [compound 11]
Exercise: Rank ascending by Flow through ng. Give the labels in the order requested.
Key: II, III, I
